Molecular target: T1, FLAG-tagged cynomolgus Ang2 (cynomolgus, UniProt O15123 19-496 (human entry), limits assumed)
T1 construct: N-terminally FLAG-tagged, conditioned medium of HEK293T cells; also called cAng2; FLAG-cAng2
T1 chain: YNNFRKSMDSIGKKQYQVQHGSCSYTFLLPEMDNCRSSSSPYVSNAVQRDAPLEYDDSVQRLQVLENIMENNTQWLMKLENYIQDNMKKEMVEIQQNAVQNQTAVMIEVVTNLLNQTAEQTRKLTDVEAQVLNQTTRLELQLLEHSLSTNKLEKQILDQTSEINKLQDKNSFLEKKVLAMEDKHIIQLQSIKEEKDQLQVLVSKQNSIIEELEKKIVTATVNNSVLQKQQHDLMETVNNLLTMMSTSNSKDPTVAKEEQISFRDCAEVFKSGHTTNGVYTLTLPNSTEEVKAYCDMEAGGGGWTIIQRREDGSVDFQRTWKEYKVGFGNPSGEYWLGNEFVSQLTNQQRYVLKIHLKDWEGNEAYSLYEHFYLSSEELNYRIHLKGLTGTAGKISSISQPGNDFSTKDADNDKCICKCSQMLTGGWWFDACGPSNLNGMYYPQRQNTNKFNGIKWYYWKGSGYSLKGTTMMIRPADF
Assay: competition ELISA: FLAG-cAng2 binding to coated cTie2-Fc
Procedure: In brief, 2 μg/mL of recombinant mouse Tie2-Fc or cyno Tie2-Fc is coated overnight at 4° C. in a 96-well MaxiSorp plate (Nunc, Wiesbaden, Germany). Coated wells are blocked with a 1% casein solution.
PROPERTY_MEASURED: IC50 (nM)
Only the number, expressed in nM, is required.

Requested read-out: IC50. Entry: VHH 00920 (VHH, not shown: small tags and cut ends) VHH: EVQLVESGGGLVQPGGSLRLSCAASGFALDYYAIGWFRQAPGKEREGVSCISSSGGITYYADSVKGRFTISRDNSKNTVYLQMNSLRPEDTAVYYCATDSGGYIDYDCMGLGYDYWGQGTLVTVSS
0.23

Requested read-out: IC50. Entry: VHH 00930 (VHH, not shown: small tags and cut ends) VHH: EVQLVESGGGLVQPGGSLRLSCAASGFALDYYAIGWFRQAPGKEREGVSCISSSGGITYYADSVKGRFTISRDNSKNTVYLQMNSLRPEDTAVYYCATESGGYIDYDCRGLGYDYWGQGTLVTVSS
0.31

Requested read-out: IC50. Entry: VHH 00926 (VHH, not shown: small tags and cut ends) VHH: EVQLVESGGGLVQPGGSLRLSCAASGFALDYYAIGWFRQAPGKEREGVSCISSSGGITYYADSVKGRFTISRDNSKNTVYLQMNSLRPEDTAVYYCATDSGGYIDYDCQGLGYDYWGQGTLVTVSS
0.29

Requested read-out: IC50. Entry: VHH 00929 (VHH, not shown: small tags and cut ends) VHH: EVQLVESGGGLVQPGGSLRLSCAASGFALDYYAIGWFRQAPGKEREGVSCISSSGGITYYADSVKGRFTISRDNSKNTVYLQMNSLRPEDTAVYYCATESGGYIDYDCQGLGYDYWGQGTLVTVSS
0.25

Requested read-out: IC50. Entry: VHH 37F02 (VHH, not shown: small tags and cut ends, Parental llama VHH; also called 037F02) VHH: EVQLVESGGGLVQPGGSLRLSCAASGFALDYYAIGWFRQAPGKEREGVSCISSSDGITYYVDSVKGRFTISRDNAKNTVYLQMNSLKPEDTAVYYCATDSGGYIDYDCMGLGYDYWGQGTQVTVSS
0.15

Requested read-out: IC50. Entry: VHH 00927 (VHH, not shown: small tags and cut ends) VHH: EVQLVESGGGLVQPGGSLRLSCAASGFALDYYAIGWFRQAPGKEREGVSCISSSGGITYYADSVKGRFTISRDNSKNTVYLQMNSLRPEDTAVYYCATDSGGYIDYDCRGLGYDYWGQGTLVTVSS
0.33

Requested read-out: IC50. Entry: VHH 00931 (VHH, not shown: small tags and cut ends) VHH: EVQLVESGGGLVQPGGSLRLSCAASGFALDYYAIGWFRQAPGKEREGVSCISSSGGITYYADSVKGRFTISRDNSKNTVYLQMNSLRPEDTAVYYCATESGGYIDYDCSGLGYDYWGQGTLVTVSS
0.29

Requested read-out: IC50. Entry: VHH 00928 (VHH, not shown: small tags and cut ends) VHH: EVQLVESGGGLVQPGGSLRLSCAASGFALDYYAIGWFRQAPGKEREGVSCISSSGGITYYADSVKGRFTISRDNSKNTVYLQMNSLRPEDTAVYYCATDSGGYIDYDCSGLGYDYWGQGTLVTVSS
0.39
